- MEASURED TARGET: purified human, His-tagged PRC2 complex (Homo sapiens (Human))
- Sequence (O75530 whole entry): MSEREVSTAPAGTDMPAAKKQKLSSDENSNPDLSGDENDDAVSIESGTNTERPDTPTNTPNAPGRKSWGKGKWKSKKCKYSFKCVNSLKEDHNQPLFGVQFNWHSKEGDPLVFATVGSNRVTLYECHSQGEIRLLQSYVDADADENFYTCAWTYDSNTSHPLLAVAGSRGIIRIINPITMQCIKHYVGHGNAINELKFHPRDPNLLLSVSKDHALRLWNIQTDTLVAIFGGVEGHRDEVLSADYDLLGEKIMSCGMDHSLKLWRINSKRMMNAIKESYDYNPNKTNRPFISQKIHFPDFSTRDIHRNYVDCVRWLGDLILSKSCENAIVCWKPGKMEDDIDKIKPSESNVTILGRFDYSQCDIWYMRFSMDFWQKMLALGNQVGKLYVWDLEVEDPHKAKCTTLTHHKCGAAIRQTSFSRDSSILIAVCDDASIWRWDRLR
- Sequence (Q15910 whole entry partner): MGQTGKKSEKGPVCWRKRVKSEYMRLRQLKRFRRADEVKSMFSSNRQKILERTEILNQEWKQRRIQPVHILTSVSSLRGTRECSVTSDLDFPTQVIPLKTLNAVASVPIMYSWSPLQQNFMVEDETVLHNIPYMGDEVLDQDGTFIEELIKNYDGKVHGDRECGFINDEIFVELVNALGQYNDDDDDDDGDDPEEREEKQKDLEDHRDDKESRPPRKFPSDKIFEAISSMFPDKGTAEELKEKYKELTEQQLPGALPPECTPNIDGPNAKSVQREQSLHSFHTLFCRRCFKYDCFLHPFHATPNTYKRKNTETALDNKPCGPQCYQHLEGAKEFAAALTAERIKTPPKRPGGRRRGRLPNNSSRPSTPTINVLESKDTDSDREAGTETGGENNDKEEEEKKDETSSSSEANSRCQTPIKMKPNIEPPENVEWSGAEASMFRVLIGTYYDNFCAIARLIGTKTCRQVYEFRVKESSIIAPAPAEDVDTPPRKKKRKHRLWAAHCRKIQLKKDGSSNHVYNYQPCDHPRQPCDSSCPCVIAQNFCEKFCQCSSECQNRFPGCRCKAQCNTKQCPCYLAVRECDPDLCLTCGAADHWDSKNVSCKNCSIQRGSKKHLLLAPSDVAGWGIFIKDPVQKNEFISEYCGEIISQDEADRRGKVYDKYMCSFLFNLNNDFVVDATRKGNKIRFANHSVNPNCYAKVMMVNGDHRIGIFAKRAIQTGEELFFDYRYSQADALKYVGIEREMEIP
- Sequence (Q15022 whole entry partner): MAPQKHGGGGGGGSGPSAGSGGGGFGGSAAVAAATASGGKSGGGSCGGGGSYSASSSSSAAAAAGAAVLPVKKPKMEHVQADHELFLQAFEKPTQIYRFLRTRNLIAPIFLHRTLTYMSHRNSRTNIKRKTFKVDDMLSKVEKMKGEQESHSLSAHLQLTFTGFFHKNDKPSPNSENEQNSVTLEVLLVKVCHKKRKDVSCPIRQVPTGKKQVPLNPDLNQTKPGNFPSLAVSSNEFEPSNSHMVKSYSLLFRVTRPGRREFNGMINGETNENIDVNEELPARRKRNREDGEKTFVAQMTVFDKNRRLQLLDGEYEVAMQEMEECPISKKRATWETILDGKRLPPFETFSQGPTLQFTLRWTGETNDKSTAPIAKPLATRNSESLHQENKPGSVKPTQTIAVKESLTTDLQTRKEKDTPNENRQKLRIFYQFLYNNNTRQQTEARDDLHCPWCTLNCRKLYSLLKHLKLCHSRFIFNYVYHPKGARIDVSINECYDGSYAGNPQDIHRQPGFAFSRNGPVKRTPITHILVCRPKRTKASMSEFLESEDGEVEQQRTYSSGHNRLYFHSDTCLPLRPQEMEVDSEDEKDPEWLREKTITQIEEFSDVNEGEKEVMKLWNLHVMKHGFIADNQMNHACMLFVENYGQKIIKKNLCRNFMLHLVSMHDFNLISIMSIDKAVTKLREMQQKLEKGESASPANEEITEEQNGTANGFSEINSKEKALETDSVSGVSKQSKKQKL
- Sequence (Q6ZN18 whole entry partner): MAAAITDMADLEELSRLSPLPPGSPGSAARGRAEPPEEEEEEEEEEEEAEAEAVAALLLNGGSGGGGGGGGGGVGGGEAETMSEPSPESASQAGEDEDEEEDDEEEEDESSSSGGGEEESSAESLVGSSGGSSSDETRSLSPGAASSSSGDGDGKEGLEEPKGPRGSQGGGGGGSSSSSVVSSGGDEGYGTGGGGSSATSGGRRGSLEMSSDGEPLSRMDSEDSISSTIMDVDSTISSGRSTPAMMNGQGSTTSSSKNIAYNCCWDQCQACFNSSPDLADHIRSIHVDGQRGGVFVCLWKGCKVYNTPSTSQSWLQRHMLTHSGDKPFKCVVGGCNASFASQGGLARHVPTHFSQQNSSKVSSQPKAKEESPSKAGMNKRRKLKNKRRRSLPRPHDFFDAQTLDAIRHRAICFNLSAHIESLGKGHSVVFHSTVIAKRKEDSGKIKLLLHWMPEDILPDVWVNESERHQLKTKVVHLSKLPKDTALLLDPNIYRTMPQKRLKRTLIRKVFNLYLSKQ
- Sequence (Q09028 whole entry partner): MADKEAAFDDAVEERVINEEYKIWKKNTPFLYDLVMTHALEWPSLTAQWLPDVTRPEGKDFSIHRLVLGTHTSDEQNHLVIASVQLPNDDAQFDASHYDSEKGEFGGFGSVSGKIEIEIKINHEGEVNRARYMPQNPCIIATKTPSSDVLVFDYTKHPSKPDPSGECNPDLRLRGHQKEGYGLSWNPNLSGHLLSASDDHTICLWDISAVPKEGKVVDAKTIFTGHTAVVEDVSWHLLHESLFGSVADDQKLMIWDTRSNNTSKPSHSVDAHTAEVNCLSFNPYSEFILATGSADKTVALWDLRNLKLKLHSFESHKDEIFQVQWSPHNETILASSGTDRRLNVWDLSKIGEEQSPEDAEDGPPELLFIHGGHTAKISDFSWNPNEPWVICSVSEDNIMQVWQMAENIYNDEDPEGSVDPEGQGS
- PROTOCOL DESCRIPTION: Hot Spot HMT assay, inhibition of PRC2 enzymatic activity
- CONDITION SET: 10 nM PRC2 complex, 1 μM 3H-SAM, core histone H3, 10-point dose-response
pIC50: −log10 of the molar value.
Measured pIC50, listed per entry for reference.

Examples with their reported pIC50 follow.
CN1CCc2cc(-c3cnc(NCc4c(F)ccc5c4CCO5)n4cc(C#N)nc34)ccc2C1    6.30 to 7.00
N#Cc1cn2c(NCc3c(F)ccc4c3CCO4)ncc(-c3cnn(C4COC4)c3)c2n1    6.30 to 7.00
[2H]C([2H])(c1ccc(-c2cnc(NCc3c(F)ccc4c3CCO4)n3cc(C#N)nc23)c(C)c1)N(C)C    > 7.00
N#Cc1cn2c(NCc3c(F)ccc4c3CCO4)ncc(-c3cccc(C(=O)O)c3)c2n1    > 7.00
CN(C)C(=O)c1ccc(-c2cnc(NCc3c(F)ccc4c3CCO4)n3cc(C#N)nc23)cc1F    > 7.00

Noted for N#Cc1cn2c(NCc3c(F)ccc4c3CCO4)ncc(-c3n[nH]cc3Br)c2n1 : its pIC50 reads 6.30 to 7.00

Noted for Cn1nncc1-c1cnc(NCc2c(F)ccc3c2CCO3)n2cc(C#N)nc12 : its pIC50 reads > 7.00

Noted for CN(C)Cc1ccc(-c2cnc(NCc3c(F)ccc4c3CCO4)n3cc(C#N)nc23)c(Cl)c1F : its pIC50 reads > 7.00

Attribution: patent US20240398811A1
